# test-details: Biodistribution of radiotracers in normal mice
# Type: in vivo, mouse
# condition: normal male mice, 60 min
measured-property: Biodistribution: Liver (% dose/g)
Respond with the bare value in % dose/g.

Item O=C(O)CC[C@H](NC(=O)N[C@@H](CCCCNC(=O)CCCCCNC(=O)CCc1ccc2c(n1)C[N+]13CC[N+]45CC(=O)[O][68Ga-3]14([O]C(=O)C3)([O]2)[O]c1ccc(CCC(=O)NCCCCCC(=O)NCCCC[C@H](NC(=O)N[C@@H](CCC(=O)O)C(=O)O)C(=O)O)nc1C5)C(=O)O)C(=O)O (stereo partly shown) [[^68Ga]3] has what recorded Biodistribution: Liver? 1.81

Item O=C(O)CCc1ccc(O)c(CN(CCN(CC(=O)O)Cc2cc(CCC(=O)NCCCCCC(=O)NCCCC[C@H](NC(=O)N[C@@H](CCC(=O)O)C(=O)O)C(=O)O)ccc2O)CC(=O)O)n1 [[^68Ga]4a, metal not drawn] has what recorded Biodistribution: Liver? 0.23

Item O=C(O)CC[C@H](NC(=O)N[C@@H](CCCCNC(=O)CCCCCNC(=O)CCc1ccc2c(c1)C[N+]13CC[N+]45CC(=O)[O][68Ga-3]14([O]C(=O)C3)([O]2)[O]c1ccc(CCC(=O)NCCNC(=O)CN2CCN(CC(=O)O)CCN(CC(=O)O)CCN(CC(=O)O)CC2)cc1C5)C(=O)O)C(=O)O (stereo partly shown) [[^68Ga]1g] has what recorded Biodistribution: Liver? 0.43

Item C[C@H](NC(=O)CCc1ccc2c(c1)C[N+]13CC[N+]45CC(=O)[O][68Ga-3]41([O]C(=O)C3)([O]c1ccc(CCC(=O)NCCCCCC(=O)NCCCC[C@H](NC(=O)N[C@@H](CCC(=O)O)C(=O)O)C(=O)O)cc1C5)[O]2)C(=O)O (stereo partly shown) [[^68Ga]1d] has what recorded Biodistribution: Liver? 0.68

====

# test-details: Biodistribution of radiotracers in normal mice
# Format: in vivo, mouse
# condition: normal male mice, 30 min
measured-property: Biodistribution: Bone (% dose/g)
Respond with the bare value in % dose/g.

Item O=C(O)CCc1ccc2c(n1)C[N+]13CC[N+]45CC(=O)[O][68Ga-3]14([O]C(=O)C3)([O]2)[O]c1ccc(CCC(=O)NCCCCCC(=O)NCCCC[C@H](NC(=O)N[C@@H](CCC(=O)O)C(=O)O)C(=O)O)nc1C5 (stereo partly drawn) [[^68Ga]2] has what recorded Biodistribution: Bone? 0.48

Item O=C(O)CCc1ccc(O)c(CN(CCN(CC(=O)O)Cc2cc(CCC(=O)NCCCCCC(=O)NCCCC[C@H](NC(=O)N[C@@H](CCC(=O)O)C(=O)O)C(=O)O)ccc2O)CC(=O)O)n1 [[^68Ga]4a, metal not drawn] has what recorded Biodistribution: Bone? 0.37

Item O=C(O)CCc1ccc2c(c1)C[N+]13CC[N+]45CC(=O)[O][68Ga-3]14([O]C(=O)C3)([O]2)[O]c1ccc(CCC(=O)NCCCCCC(=O)NCCCC[C@H](NC(=O)N[C@@H](CCC(=O)O)C(=O)O)C(=O)O)cc1C5 (stereo partly drawn) [[^68Ga]1a, reference compound] has what recorded Biodistribution: Bone? 0.24

Item O=C(O)CC[C@H](NC(=O)N[C@@H](CCCCNC(=O)CCCCCNC(=O)CCc1ccc2c(n1)C[N+]13CC[N+]45CC(=O)[O][68Ga-3]14([O]C(=O)C3)([O]2)[O]c1ccc(CCC(=O)NCCCCCC(=O)NCCCC[C@H](NC(=O)N[C@@H](CCC(=O)O)C(=O)O)C(=O)O)nc1C5)C(=O)O)C(=O)O (stereo partly drawn) [[^68Ga]3] has what recorded Biodistribution: Bone? 1.70

Item O=C(O)CCc1ccc2c(c1)C[N+]13CC[N+]45CC(=O)[O][68Ga-3]14([O]C(=O)C3)([O]2)[O]c1ccc(CCC(=O)NCC(=O)N[C@@H](Cc2ccc(OCC(=O)N[C@@H](Cc3ccccc3)C(=O)NCCCC[C@H](NC(=O)N[C@@H](CCC(=O)O)C(=O)O)C(=O)O)cc2)C(=O)O)cc1C5 (stereo partly drawn) [[^68Ga]5b] has what recorded Biodistribution: Bone? 0.60

Item O=C(O)CC[C@H](NC(=O)N[C@@H](CCCCNC(=O)CCCCCNC(=O)CCc1ccc2c(c1)C[N+]13CC[N+]45CC(=O)[O][68Ga-3]14([O]C(=O)C3)([O]2)[O]c1ccc(CCC(=O)NCCNC(=O)CN2CCN(CC(=O)O)CCN(CC(=O)O)CCN(CC(=O)O)CC2)cc1C5)C(=O)O)C(=O)O (stereo partly drawn) [[^68Ga]1g] has what recorded Biodistribution: Bone? 0.22
